The measured values listed here are drawn from ChEMBL document CHEMBL1134475.

Assay: Terminal half-life following iv dosing in rat
Type: ADME, organism-based
Conditions: in vivo
measurement.kind: half-life

Worked examples, 2 compounds total:
# compound, val
rows = [
    ("c1ccc(CCN2[C@@H]3CC[C@H]2CC(c2c(-c4ccccc4)[nH]c4ccccc24)C3)cc1 (stereo partly drawn)", "2.3 h"),
    ("c1ccc(CCN2CCC(c3c(-c4ccccc4)[nH]c4ccccc34)CC2)cc1", "5.3 h"),
]

Moving on to another compound below.
Request: What value of half-life has been recorded for this entry: `F[C@@H]1CCNC[C@H]1c1c(-c2ccccc2)[nH]c2ccccc12`
Response: 1.4 h

* * *

Assay: Bioavailability in rat (dose 0.5-2 mg/kg i.v. and p.o.)
Type: ADME, organism-based
Details: in vivo, po
List of bioavailability values.
Response body: numeric value in %, unit text excluded.

# compound, measurement.kind, val
rows = [
    ("c1ccc(CCN2[C@@H]3CC[C@H]2CC(c2c(-c4ccccc4)[nH]c4ccccc24)C3)cc1 (some centres not stated)", "bioavailability", 18),
]

Moving on to another compound below.
Request: What value of bioavailability has been recorded for this entry: `F[C@@H]1CCNC[C@H]1c1c(-c2ccccc2)[nH]c2ccccc12`
Response: 18
